The origin of these recorded values is patent EP1972623A1.

# PROTOCOL TEXT: logP determination via HPLC retention times (calibration with unbranched alkan-2-ones)
# Format: physicochemical
# TEST CONDITIONS: HPLC on reversed-phase C 18 columns, EEC Directive 79/831 Annex V.A8; acidic aqueous mobile phase / acetonitrile, linear gradient 10% to 95% acetonitrile

SMILES STRUCTURE: Cc1nnc(Cl)c(-c2c(F)cc(F)cc2F)c1-c1ccc(Cl)s1
chromatographic logP: 4.11
//
SMILES STRUCTURE: COc1ccccc1-c1c(Cl)nnc(C)c1-c1ccc(Cl)s1
chromatographic logP: 3.65
//
SMILES STRUCTURE: Cc1nnc(Cl)c(-c2cccc(Cl)c2)c1-c1ccc(Cl)s1
chromatographic logP: 4.07
//
SMILES STRUCTURE: Cc1nnc(Cl)c(-c2ccc(F)cc2Cl)c1-c1ccc(Cl)s1
chromatographic logP: 4.21
//
SMILES STRUCTURE: Cc1nnc(Cl)c(-c2ccc(F)cc2Cl)c1-c1cccs1
chromatographic logP: 3.45
//
SMILES STRUCTURE: Cc1nnc(Cl)c(-c2c(F)cccc2Cl)c1-c1ccc(Cl)s1
chromatographic logP: 4.16
//
SMILES STRUCTURE: Cc1nnc(Cl)c(-c2ccc(F)cc2Br)c1-c1ccc(Cl)s1
chromatographic logP: 4.28
//
SMILES STRUCTURE: Cc1nnc(Cl)c(-c2ccccc2F)c1-c1cccs1
chromatographic logP: 3.05
//
SMILES STRUCTURE: Cc1ccc(-c2c(C)nnc(Cl)c2-c2c(Cl)cccc2Cl)nc1C
chromatographic logP: 4.16
//
SMILES STRUCTURE: Cc1nnc(Cl)c(-c2c(F)cccc2F)c1-c1nccs1
chromatographic logP: 2.51
//
SMILES STRUCTURE: Cc1nnc(Cl)c(-c2cccc3c2OC(F)(F)O3)c1-c1ccc(Cl)s1
chromatographic logP: 4.33
//
SMILES STRUCTURE: Cc1nnc(Cl)c(-c2ccccc2F)c1-c1ccc(Cl)s1
chromatographic logP: 3.7
//
SMILES STRUCTURE: Cc1nnc(Cl)c(-c2ccc(F)cc2Br)c1-c1cccs1
chromatographic logP: 3.56
//
SMILES STRUCTURE: Cc1ccc(-c2c(C)nnc(Cl)c2-c2cc(F)c(F)cc2F)nc1C
chromatographic logP: 3.15
//
SMILES STRUCTURE: Cc1nnc(Cl)c(-c2c(F)cccc2F)c1-c1ccncc1
chromatographic logP: 2.08
//
SMILES STRUCTURE: Cc1nnc(Cl)c(-c2cc(Cl)ccc2F)c1-c1ccc(Cl)s1
chromatographic logP: 4.16
//
SMILES STRUCTURE: Cc1nnc(Cl)c(-c2c(Cl)cccc2Cl)c1-c1ccc(Cl)s1
chromatographic logP: 4.44
//
SMILES STRUCTURE: Cc1nnc(Cl)c(-c2c(F)cccc2F)c1-c1ccc(Cl)s1
chromatographic logP: 3.84
//
SMILES STRUCTURE: Cc1nnc(Cl)c(-c2cc(F)c(F)cc2F)c1-c1cccs1
chromatographic logP: 3.39

###

# PROTOCOL TEXT: logP determination via HPLC retention times (calibration with unbranched alkan-2-ones)
# Type: physicochemical
# TEST CONDITIONS: from retention times, linear interpolation between alkan-2-ones
Lab note - cut at 3 for chromatographic logP: MET if strictly below, NOT MET if not.

COMPOUND: CC1(O)OC(=O)C(c2cccc(Cl)c2)=C1c1ccc(Cl)s1 (stereo not shown)
CAT: NOT MET
//
COMPOUND: CC1(O)OC(=O)C(c2ccccc2Cl)=C1c1cccs1 (stereo not shown)
CAT: MET
//
COMPOUND: Cc1n[nH]c(=O)c(-c2cccc3c2OC(F)(F)O3)c1-c1ccc(Cl)s1
CAT: NOT MET
//
COMPOUND: CC1(O)OC(=O)C(c2c(F)cccc2F)=C1c1ccncc1 (stereo not shown)
CAT: MET
//
COMPOUND: Cc1n[nH]c(=O)c(-c2c(Cl)cccc2Cl)c1-c1ccc(Cl)s1
CAT: NOT MET
//
COMPOUND: Cc1ccc(-c2c(C)n[nH]c(=O)c2-c2cc(F)c(F)cc2F)nc1C
CAT: MET
//
COMPOUND: Cc1n[nH]c(=O)c(-c2c(Cl)cccc2Cl)c1-c1cccs1
CAT: MET
//
COMPOUND: CC1(O)OC(=O)C(c2cc(F)c(F)cc2F)=C1c1cccs1 (stereo not shown)
CAT: MET
//
COMPOUND: CC1(O)OC(=O)C(c2ccccc2Cl)=C1c1ccc(Cl)s1 (stereo not shown)
CAT: NOT MET
//
COMPOUND: Cc1ccc(C2=C(c3c(F)cccc3F)C(=O)OC2(C)O)nc1C (stereo not shown)
CAT: MET
//
COMPOUND: Cc1n[nH]c(=O)c(-c2c(F)cccc2F)c1-c1ccncc1
CAT: MET
//
COMPOUND: CC1(O)OC(=O)C(c2cccc(Cl)c2)=C1c1cccs1 (stereo not shown)
CAT: MET
//
COMPOUND: CC1(O)OC(=O)C(c2ccccc2F)=C1c1cccs1 (stereo not shown)
CAT: MET
//
COMPOUND: Cc1ccc(C2=C(c3cc(F)c(F)cc3F)C(=O)OC2(C)O)nc1C (stereo not shown)
CAT: MET
//
COMPOUND: CC1(O)OC(=O)C(c2cccc3c2OC(F)(F)O3)=C1c1ccc(Cl)s1 (stereo not shown)
CAT: NOT MET
//
COMPOUND: CC1(O)OC(=O)C(c2c(F)cccc2Cl)=C1c1cccs1 (stereo not shown)
CAT: MET
//
COMPOUND: CC1(O)OC(=O)C(c2c(F)cccc2Cl)=C1c1ccc(Cl)s1 (stereo not shown)
CAT: NOT MET
//
COMPOUND: Cc1n[nH]c(=O)c(-c2ccccc2Cl)c1-c1ccc(Cl)s1
CAT: MET
//
COMPOUND: CC1(O)OC(=O)C(c2c(Cl)cccc2Cl)=C1c1cccs1 (stereo not shown)
CAT: MET
//
COMPOUND: CC1(O)OC(=O)C(c2c(F)cccc2F)=C1c1cccs1 (stereo not shown)
CAT: MET
//
COMPOUND: Cc1ccc(C2=C(c3c(Cl)cccc3Cl)C(=O)OC2(C)O)nc1C (stereo not shown)
CAT: NOT MET
//
COMPOUND: Cc1n[nH]c(=O)c(-c2cc(F)c(F)cc2F)c1-c1cccs1
CAT: MET
//
COMPOUND: Cc1ccc(-c2c(C)n[nH]c(=O)c2-c2c(F)cccc2F)o1
CAT: MET
//
COMPOUND: CC1(O)OC(=O)C(c2ccc(F)cc2Br)=C1c1ccc(Cl)s1 (stereo not shown)
CAT: NOT MET
//
COMPOUND: Cc1n[nH]c(=O)c(-c2ccccc2F)c1-c1cccs1
CAT: MET
//
COMPOUND: CC1(O)OC(=O)C(c2cc(F)c(F)cc2F)=C1c1ccc(Cl)s1 (stereo not shown)
CAT: NOT MET
//
COMPOUND: Cc1ccc(-c2c(C)n[nH]c(=O)c2-c2c(Cl)cccc2Cl)nc1C
CAT: MET
//
COMPOUND: CC1(O)OC(=O)C(c2c(F)cccc2F)=C1c1nccs1 (stereo not shown)
CAT: MET
//
COMPOUND: Cc1n[nH]c(=O)c(-c2ccccc2Cl)c1-c1cccs1
CAT: MET

###

chromatographic logP values by entry
# PROTOCOL TEXT: logP determination via HPLC retention times (calibration with unbranched alkan-2-ones)
# Assay type: physicochemical
# TEST CONDITIONS: from retention times, linear interpolation between alkan-2-ones

COMPOUND: CC1(O)OC(=O)C(c2ccc(F)cc2Cl)=C1c1cccs1 (stereo not shown)
chromatographic logP: 2.68
--
COMPOUND: CC1(O)OC(=O)C(c2ccc(F)cc2Cl)=C1c1ccc(Cl)s1 (stereo not shown)
chromatographic logP: 3.24
--
COMPOUND: Cc1n[nH]c(=O)c(-c2cc(F)c(F)cc2F)c1-c1ccc(Cl)s1
chromatographic logP: 2.88
--
COMPOUND: Cc1n[nH]c(=O)c(-c2cccc(Cl)c2)c1-c1ccc(Cl)s1
chromatographic logP: 3.04
